# tgt: UniProtKB P35968
# Sequence (P35968 20-1356): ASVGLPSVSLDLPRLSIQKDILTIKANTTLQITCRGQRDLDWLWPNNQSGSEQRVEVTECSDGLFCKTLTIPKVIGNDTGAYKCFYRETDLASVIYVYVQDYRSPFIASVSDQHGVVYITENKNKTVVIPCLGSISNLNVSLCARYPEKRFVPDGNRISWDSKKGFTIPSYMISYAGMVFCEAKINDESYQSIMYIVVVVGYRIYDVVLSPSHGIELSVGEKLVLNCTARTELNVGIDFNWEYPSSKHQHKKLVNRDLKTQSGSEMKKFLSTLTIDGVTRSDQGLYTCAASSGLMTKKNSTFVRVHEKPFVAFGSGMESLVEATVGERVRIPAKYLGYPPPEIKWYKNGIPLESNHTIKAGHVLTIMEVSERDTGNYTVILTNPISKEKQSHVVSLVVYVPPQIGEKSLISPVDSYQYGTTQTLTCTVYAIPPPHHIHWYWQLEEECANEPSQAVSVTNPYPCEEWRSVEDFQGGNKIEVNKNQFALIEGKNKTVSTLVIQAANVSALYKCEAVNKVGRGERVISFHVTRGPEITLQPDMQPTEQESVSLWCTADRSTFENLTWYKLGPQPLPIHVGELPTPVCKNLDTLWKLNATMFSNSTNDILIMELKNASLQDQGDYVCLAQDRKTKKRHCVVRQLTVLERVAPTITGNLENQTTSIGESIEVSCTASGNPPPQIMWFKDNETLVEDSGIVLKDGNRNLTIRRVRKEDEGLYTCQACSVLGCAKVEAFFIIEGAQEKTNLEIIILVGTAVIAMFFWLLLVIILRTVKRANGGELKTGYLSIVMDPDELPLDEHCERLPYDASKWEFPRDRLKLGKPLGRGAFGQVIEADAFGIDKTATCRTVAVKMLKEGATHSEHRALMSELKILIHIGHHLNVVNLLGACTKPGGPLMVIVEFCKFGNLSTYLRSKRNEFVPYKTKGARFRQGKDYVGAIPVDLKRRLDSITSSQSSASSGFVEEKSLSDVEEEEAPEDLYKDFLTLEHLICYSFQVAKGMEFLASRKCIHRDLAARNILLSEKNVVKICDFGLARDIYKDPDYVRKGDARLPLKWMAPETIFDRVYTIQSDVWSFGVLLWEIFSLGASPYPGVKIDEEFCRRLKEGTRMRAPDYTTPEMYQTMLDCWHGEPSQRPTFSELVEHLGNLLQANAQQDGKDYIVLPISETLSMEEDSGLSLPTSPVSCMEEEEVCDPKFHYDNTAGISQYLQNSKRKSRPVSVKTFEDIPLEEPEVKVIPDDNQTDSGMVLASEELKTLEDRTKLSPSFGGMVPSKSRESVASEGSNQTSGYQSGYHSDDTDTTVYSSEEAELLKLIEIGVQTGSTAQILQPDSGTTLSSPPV
Form field: pIC50 (one value per entry).
Convention used: pIC50 is expressed as -log10 of the molar concentration.

{"columns": ["sample_smiles", "pIC50"],
 "data": [
  ["COc1cc(OC)cc(N(CCCO)c2ccc3ncc(-c4cnc(N5CCN(C)CC5)c(C)c4)nc3c2)c1", 6.77],
  ["COc1cc(OC)cc(N(CCNC(C)C)c2ccc3ncc(C(=O)N4CCCCC4)nc3c2)c1", 6.72],
  ["COc1cc(OC)cc(N(CCNC(C)C)c2ccc3ncc(-c4cccnc4)nc3c2)c1", 6.53],
  ["COc1cc(OC)cc(N(CCNC(C)C)c2ccc3ncc(N4CCC(CN)CC4)nc3c2)c1", 6.35]
]}

Lookup: Quick one: give measured pIC50 for COc1cc(OC)cc(N(CCNC(C)C)c2ccc3ncc(-c4ccc(N5CCOCC5)nc4)nc3c2)c1
Found: 7.20

Lookup: Quick one: give measured pIC50 for COc1cc(OC)cc(N(CCCO)c2ccc3ncc(-c4ccnc(F)c4)nc3c2)c1
Found: 6.46

Lookup: Quick one: give measured pIC50 for COc1cc(OC)cc(N(CCO)c2ccc3ncc(-n4cnc(CO)c4)nc3c2)c1
Found: 6.15

Lookup: Quick one: give measured pIC50 for COc1cc(OC)cc(N(CCO)c2ccc3ncc(-c4ccc(N5CCOCC5)nc4)nc3c2)c1
Found: 6.77

Lookup: Quick one: give measured pIC50 for COc1cc(OC)cc(N(CCO)c2ccc3ncc(-c4ccc(N5CCNCC5)nc4)nc3c2)c1
Found: 6.89

Lookup: Quick one: give measured pIC50 for COc1cc(OC)cc(N(CCO)c2ccc3ncc(-c4ccccc4)nc3c2)c1
Found: 6.58

====

Form field: IC50 (one value per entry).
# tgt: FGFR1 (h) (Homo sapiens, UniProt P11362)
# Sequence (P11362 22-822): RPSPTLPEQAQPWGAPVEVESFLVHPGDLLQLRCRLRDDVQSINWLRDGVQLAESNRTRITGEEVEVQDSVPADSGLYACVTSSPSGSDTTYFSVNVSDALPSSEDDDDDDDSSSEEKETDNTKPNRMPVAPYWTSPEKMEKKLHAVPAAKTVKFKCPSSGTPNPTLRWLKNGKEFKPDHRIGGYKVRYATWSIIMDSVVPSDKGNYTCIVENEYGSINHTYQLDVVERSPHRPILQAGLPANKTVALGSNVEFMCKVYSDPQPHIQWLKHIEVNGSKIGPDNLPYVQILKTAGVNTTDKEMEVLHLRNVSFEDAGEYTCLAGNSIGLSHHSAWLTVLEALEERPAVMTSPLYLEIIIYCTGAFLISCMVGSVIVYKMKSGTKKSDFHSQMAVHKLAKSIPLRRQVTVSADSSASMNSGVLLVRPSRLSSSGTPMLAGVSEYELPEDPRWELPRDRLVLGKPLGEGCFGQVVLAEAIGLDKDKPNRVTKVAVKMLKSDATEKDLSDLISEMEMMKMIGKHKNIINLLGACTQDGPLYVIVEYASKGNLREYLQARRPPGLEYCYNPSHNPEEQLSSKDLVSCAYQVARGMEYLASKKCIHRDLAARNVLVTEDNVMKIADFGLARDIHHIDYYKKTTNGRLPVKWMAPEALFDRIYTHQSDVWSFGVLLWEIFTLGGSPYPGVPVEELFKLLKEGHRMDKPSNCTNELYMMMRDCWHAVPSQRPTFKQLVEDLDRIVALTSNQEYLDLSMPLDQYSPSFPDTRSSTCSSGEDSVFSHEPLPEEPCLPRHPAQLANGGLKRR
# run_description: FGFR1 (enzymatic assay), TR-FRET
# Assay type: biochemical
# condition_context: read-out: FGFR 1 pIC50 (converted)
Output spec: scalar in nM, unitless text.

{"columns": ["sample_smiles", "uom", "numeric_value"],
 "data": [
  ["COc1cc(OC)cc(N(CCCNCC(F)(F)F)c2ccc3ncc(-c4ccn(C)c4)nc3c2)c1", "nM", 6.92],
  ["COc1cc(OC)cc(N(CC2CC2)c2ccc3ncc(-n4cnc(CO)c4)nc3c2)c1", "nM", 28.2],
  ["COc1cc(OC)cc(N(CCCO)c2ccc3ncc(-c4ccnc(C(=O)NCCCCCN)c4)nc3c2)c1", "nM", 17.4],
  ["COc1cc(OC)cc(N(CC2CC2)c2ccc3ncc(-c4cccc(N5CCOCC5)c4)nc3c2)c1", "nM", 363],
  ["COc1cc(OC)cc(N(CCCNC(C)C)c2ccc3ncc(-c4ccnc(NC(=O)OC(C)(C)C)c4)nc3c2)c1", "nM", 3.72]
]}

Lookup: Report value: IC50, system: FGFR1 (h) (Homo sapiens, UniProt P11362), compound: COc1cc(OC)cc(N(CCCNCC(F)(F)F)c2ccc3ncc(-c4ccnc(C(=O)NCCCCCO)c4)nc3c2)c1
Found: 91.2

Lookup: Report value: IC50, system: FGFR1 (h) (Homo sapiens, UniProt P11362), compound: COc1cc(OC)cc(N(CCCO)c2ccc3ncc(-c4cnc(N5CCN(C)CC5)c(C)c4)nc3c2)c1
Found: 2
